Source: PubChem BioAssay AID1963449

Tested on: 596521-263-R-J1-PDC complex spheroid growth;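 further: spheroids exposed to compounds for 7 days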
protocol: Anticancer human tumor 596521-263-R-J1-PDC patient-derived soft tissue sarcoma cell line growth inhibition [Asc]
conditions: second compound 0.316 µM; first compound 0.00316 µM; hits give low values
recorded metric: viability, T/C (%)
Numbers only, in %.

Returns the measured viability, T/C for the input compound. Input: CCN1CCN(Cc2ccc(Nc3ncc(F)c(-c4cc(F)c5nc(C)n(C(C)C)c5c4)n3)nc2)CC1 + Cc1c(S(C)(=O)=O)c(-c2cc(F)cc(N3CCN(c4ccc(NS(=O)(=O)c5ccc(NC(CCN6CCC(C(=O)OCCCP(=O)(O)O)CC6)CSc6ccccc6)c(S(=O)(=O)C(F)(F)F)c5)cc4)CC3)c2)c(-c2ccc(Cl)cc2)n1C(C)C
102
